- System: NCI-H226
- testSummary: NCI tumour cell line growth inhibition, 48 h
Calls of active or inactive are those of the source. Cut-off read from the data, not from the text of the source: active = GI50 up to about 1.1 µM and inactive = higher. Bridge positions count the residues as written; N and C are the ends. Square brackets hold non-standard residues; d marks the D form. Peptide text beside a SMILES is read from it. * marks the point of attachment. Cya = N[CH](CS(=O)(=O)O)C(=O)O; X49 = CC(C)CCCCCCCC(O)CC(=O)*; GABA = NCCCC(=O)O
Outcome codes: 1 (active), 0 (inactive)

compound	labelValue
CC(C)CCCCCCCC(O)CC(=O)NC(CS(=O)(=O)O)C(=O)NC(CC(C)C)C(=O)NCCCC(=O)NC(Cc1c[nH]cn1)C(=O)NC(C)C(=O)NC1C(=O)NC(C(C)O)C(=O)NC(Cc2c[nH]cn2)C(=O)NC(C)C(=O)NC(C(C)O)C(=O)OC1C (stereo not drawn) (X49-[Cya]L[GABA]HATTHAT; ester 6-C; configuration not given here)	0
Oc1c(C2=N[C@H]3CCCC[C@@H]3N2)ccc2ccccc12	0
CC1=NN(c2cc(Cl)c(S(=O)(=O)O)cc2Cl)C2(C1)C(Cl)C(=O)N2c1nc2ccccc2s1 (stereo not drawn)	0
Cc1ccc(C(=O)Nc2ccc(CP(=O)(O)O)cc2)cc1NC(=O)c1cccc(NC(=O)Nc2cccc(C(=O)Nc3cc(C(=O)Nc4ccc(CP(=O)(O)O)cc4)ccc3C)c2)c1	0
N#Cc1c(NC(=S)Nc2ccc(Cl)cc2)sc2c1CCCC2	0
C[N+]1(C)CC=C(N2CCOCC2)CC1	0
O=S1(=O)C[C@H](O)[C@H](O)CS1	0
FC(F)(F)C1=NC(=NNc2nnc(-c3ccccc3)c(-c3ccccc3)n2)N=C(C(F)(F)F)C1	0
CCOC(=O)/C=C(/C(=O)OCC)n1cc(C)c(=O)n(Cc2cnnn2COCCOC(C)=O)c1=O	0
O=C1c2ccccc2C(=O)N1CC(CN1C(=O)c2ccccc2C1=O)(C(=O)OCc1ccccc1)C(=O)OCc1ccccc1	0
O=C1c2ccccc2C(=O)c2c(NCCNC(=O)C3CCCN3)ccc(NCCNC(=O)C3CCCN3)c21 (stereo not drawn)	0
CC(Cl)CN1c2ccccc2Sc2ccc(Cl)cc21 (stereo not drawn)	0
O=CN/C=C\c1cc(O)ccc1O	0
Oc1cc2c(cc1C(c1ccc3c(c1)OCO3)N1CCN(C(c3ccc4c(c3)OCO4)c3cc4c(cc3O)OCO4)CC1)OCO2 (stereo not drawn)	0
COc1cccc(C(=O)O[C@H]2[C@@H]3[C@]4(OC(C)=O)CO[C@@H]4C[C@H](O)[C@@]3(C)C(=O)[C@H](OC(C)=O)C3=C(C)[C@@H](OC(=O)[C@H](O)[C@@H](NC(=O)OC(C)(C)C)c4ccco4)C[C@]2(O)C3(C)C)c1	1
CC(C)CCNC(=O)c1ccc(CNC(=O)/C=C/c2ccc3ccccc3c2)cc1	0
CC1(C)CCCCCC(C)(CCCO)C1=O (stereo not drawn)	0
Cc1cccc(NC2=NC(=O)C(CC(=O)Nc3ccccc3Cl)S2)c1 (stereo not drawn)	0
Cn1c(=O)c2nc[nH]c2n(C)c1=O	0
Cc1[nH]c(=O)nc(N/N=C/c2ccc(Cl)cc2)c1C(=O)Nc1ccc(Cl)cc1	0
COC(=O)C1=C(O)C(C(=O)OC)[C@]2(O)[C@H](C(=O)OC)[C@H]1C[C@@H](c1ccc(Cl)cc1)[C@H]2C(=O)OC (stereo partly drawn)	0
CN(c1ccccc1Cl)S(=O)(=O)c1ccccc1[N+](=O)[O-]	0
COC1=CC(=O)C(O)=C(C[C@@]2(C)[C@@H]3CCC[C@H](COC(=O)CCCCCNC(=O)OC(C)(C)C)[C@@]3(C)CC[C@@H]2C)C1=O	0
COc1ccc2c(c1)[n+]([O-])c(-c1ccc(Cl)c(Cl)c1)c(N)[n+]2[O-]	0
C/C=C1\CN2CCc3c([nH]c4ccccc34)C2CC1CCO (stereo not drawn)	0
ICC1CCCO1 (stereo not drawn)	0
O=C(O)CNc1ccc(C(=O)O)cc1	0
COC(=O)C1=NN2c3ccccc3CN([C@@H](C)c3ccccc3)C(=O)[C@@H]2C1	0
O=C1c2ccccc2NC2C(O)c3ccccc3N12 (stereo not drawn)	0
OCc1ccc(-c2ccc(-c3ccc(CO)s3)o2)s1	1
CCNC(=O)N(CC)CN(CC)C(=O)NCC	0
O=C1CCCC2=C1CC1=C(CCCC1=O)N2c1ccc(-c2ccccc2)cc1	0
CC[P+]1(c2ccccc2)CCCCC1	0
Cc1c(C(=O)O)n2c(C)nnc2c2ccccc12	0
O=C1C=C(N2CC2)C(=O)C=C1N1CC1	1
COc1cccc(/N=N/C(=N/NC(=O)c2ccc(C)cc2)c2ccc(N(CCC#N)CCC#N)cc2OC)c1	0
C[C@]12CCC(=O)C=C1CC[C@@H]1C2CC[C@]2(C)Nc3c(ncn3-c3ccc(F)cc3)CC12 (stereo partly drawn)	0
C#CCOCC12C=CC(O1)C1COC(=O)C12 (stereo not drawn)	0
